Reference source for all entries: patent US20170189529A1

Here, each record is paired with measured fold reactivity over background (fold over background) data.
target: recombinant HA of influenza A H3 A/Sydney/97 (influenza A virus H3 A/Sydney/97); test: recombinant HA ELISA (AttoPhos fluorescence, mean of triplicates)

{"BINDER": "TRL813 (antibody, V domains shown) VH: QVQLVESGGGLVQPGGSLRLSCAASGFIFGDFAIHWVRQASGKGLEWVARIRSGLNRFETAYAASVEGRLTISRDDSKSMAYLQMNNVKAEDTAVYLCTYLVGAVGFQHWGQGTLVTVSS VL: DIVMTQSPSTLSASVGDRVTITCRASQTIYRWLAWYQQKPGKAPKVLIYKASTLESGVPSRFSGSGSGTEFTLAISSLQPDDFATYYCQQYNSFPYRFGQGTKVEIKR", "RESULT": 1.1}
{"BINDER": "TRL832 (antibody, V domains shown) VH: QVQLVESGPGLMKPSETLSLTCTVSGGSVSNYYWSWIRQPPGKGLEWIGYVFYSGSSNYNPSLNNPSLKSRVTISIDTSNNQFSLKLSSVTAADTAVYYCARGRVNSGYDWGPNFDSWGQGALVTVSS VL: DIVLTQAPSVSVSPGQTASITCSGDRLGEKFASWYQQKPGQSPVLVIYEDSKRPSGIPDRFSGSNSGNTATLTISGTQIMDEGDFFCQAWDSSTVVFGGGTKLTVLG", "RESULT": 1.1}

Entry TRL854 (antibody, V domains shown) VH: QVQLVESGAEVKKPGASVRVSCKGSGYTFTAYHMHWVRQAPGQGFEWVGWINPNSGATYYTSTFEGRVTMTRDTSITTAYMELSSLRSDDTAVYYCATDIVVERDASLGGFNSYGMDVWGQGTTVTVSS VL: DIEMTQSPLSLPVTPGEPASISCRSSQSLLHSNGYNHLAWYLQKPGRSPHLLIYLASTRASGVPDRFSGSGSGTDFTLKISRVEAEDVGIYYCMQSLQTSITFGQGTRLEIKR ; fold reactivity over background (fold over background) = 1.3
